log10 of Ki values by entry
Target: KAT7 (Homo sapiens (Human), UniProt O95251)
Sequence (O95251 whole entry): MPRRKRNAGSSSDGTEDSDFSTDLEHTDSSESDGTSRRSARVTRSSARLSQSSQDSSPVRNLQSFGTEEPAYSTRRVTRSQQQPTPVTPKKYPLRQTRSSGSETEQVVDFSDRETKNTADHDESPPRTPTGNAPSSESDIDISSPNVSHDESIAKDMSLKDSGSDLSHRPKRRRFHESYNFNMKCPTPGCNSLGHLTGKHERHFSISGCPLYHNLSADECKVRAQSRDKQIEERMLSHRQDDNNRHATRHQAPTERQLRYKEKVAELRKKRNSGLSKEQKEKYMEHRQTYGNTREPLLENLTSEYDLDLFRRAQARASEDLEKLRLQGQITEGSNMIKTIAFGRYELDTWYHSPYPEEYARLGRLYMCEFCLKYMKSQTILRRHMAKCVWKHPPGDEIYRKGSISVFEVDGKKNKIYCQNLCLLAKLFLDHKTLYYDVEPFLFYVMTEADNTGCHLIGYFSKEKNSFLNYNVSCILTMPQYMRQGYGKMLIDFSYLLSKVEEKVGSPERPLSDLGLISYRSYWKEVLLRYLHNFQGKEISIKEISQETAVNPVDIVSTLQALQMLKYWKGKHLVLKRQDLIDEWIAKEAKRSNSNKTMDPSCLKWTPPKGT
Assay: KAT assay (SAMDI mass spectrometry), KAT7;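 note: Baculovirus-expressed enzyme acetylating a histone peptide at room temperature, percent conversion from product and substrate peak areas, Ki from a Morrison tight-binding competitive fit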
Type: biochemical
Settings: read-out: KAT7 Ki at 1 μM AcCoA
A difference of one corresponds to tenfold Ki; all values are log10 with Ki in nM.

1) COc1cccc(OC)c1S(=O)(=O)Nc1noc2cc(Cn3cc(F)cn3)cc(OC)c12; 2.36

Give the measured log10 of Ki of COc1ccccc1S(=O)(=O)Nc1noc2cc(Cn3nccn3)cc(OC)c12 .
1.28

Reported log10 of Ki for COc1cccc(OC)c1S(=O)(=O)Nc1noc2cc(Cn3cccn3)ccc12 : what is it?
2.65

Form field: reported log10 of Ki of COc1cc(OC)cc(S(=O)(=O)Nc2noc3cc(Cn4cccn4)cc(OC)c23)c1
2.56

GET /values?readout=log10 of Ki&item= COc1cc(Cn2cccn2)cc2onc(NS(=O)(=O)c3cc(C)cc(F)c3)c12
2.51

---

Target: KAT6A (Homo sapiens (Human))
Sequence (Q92794 whole entry): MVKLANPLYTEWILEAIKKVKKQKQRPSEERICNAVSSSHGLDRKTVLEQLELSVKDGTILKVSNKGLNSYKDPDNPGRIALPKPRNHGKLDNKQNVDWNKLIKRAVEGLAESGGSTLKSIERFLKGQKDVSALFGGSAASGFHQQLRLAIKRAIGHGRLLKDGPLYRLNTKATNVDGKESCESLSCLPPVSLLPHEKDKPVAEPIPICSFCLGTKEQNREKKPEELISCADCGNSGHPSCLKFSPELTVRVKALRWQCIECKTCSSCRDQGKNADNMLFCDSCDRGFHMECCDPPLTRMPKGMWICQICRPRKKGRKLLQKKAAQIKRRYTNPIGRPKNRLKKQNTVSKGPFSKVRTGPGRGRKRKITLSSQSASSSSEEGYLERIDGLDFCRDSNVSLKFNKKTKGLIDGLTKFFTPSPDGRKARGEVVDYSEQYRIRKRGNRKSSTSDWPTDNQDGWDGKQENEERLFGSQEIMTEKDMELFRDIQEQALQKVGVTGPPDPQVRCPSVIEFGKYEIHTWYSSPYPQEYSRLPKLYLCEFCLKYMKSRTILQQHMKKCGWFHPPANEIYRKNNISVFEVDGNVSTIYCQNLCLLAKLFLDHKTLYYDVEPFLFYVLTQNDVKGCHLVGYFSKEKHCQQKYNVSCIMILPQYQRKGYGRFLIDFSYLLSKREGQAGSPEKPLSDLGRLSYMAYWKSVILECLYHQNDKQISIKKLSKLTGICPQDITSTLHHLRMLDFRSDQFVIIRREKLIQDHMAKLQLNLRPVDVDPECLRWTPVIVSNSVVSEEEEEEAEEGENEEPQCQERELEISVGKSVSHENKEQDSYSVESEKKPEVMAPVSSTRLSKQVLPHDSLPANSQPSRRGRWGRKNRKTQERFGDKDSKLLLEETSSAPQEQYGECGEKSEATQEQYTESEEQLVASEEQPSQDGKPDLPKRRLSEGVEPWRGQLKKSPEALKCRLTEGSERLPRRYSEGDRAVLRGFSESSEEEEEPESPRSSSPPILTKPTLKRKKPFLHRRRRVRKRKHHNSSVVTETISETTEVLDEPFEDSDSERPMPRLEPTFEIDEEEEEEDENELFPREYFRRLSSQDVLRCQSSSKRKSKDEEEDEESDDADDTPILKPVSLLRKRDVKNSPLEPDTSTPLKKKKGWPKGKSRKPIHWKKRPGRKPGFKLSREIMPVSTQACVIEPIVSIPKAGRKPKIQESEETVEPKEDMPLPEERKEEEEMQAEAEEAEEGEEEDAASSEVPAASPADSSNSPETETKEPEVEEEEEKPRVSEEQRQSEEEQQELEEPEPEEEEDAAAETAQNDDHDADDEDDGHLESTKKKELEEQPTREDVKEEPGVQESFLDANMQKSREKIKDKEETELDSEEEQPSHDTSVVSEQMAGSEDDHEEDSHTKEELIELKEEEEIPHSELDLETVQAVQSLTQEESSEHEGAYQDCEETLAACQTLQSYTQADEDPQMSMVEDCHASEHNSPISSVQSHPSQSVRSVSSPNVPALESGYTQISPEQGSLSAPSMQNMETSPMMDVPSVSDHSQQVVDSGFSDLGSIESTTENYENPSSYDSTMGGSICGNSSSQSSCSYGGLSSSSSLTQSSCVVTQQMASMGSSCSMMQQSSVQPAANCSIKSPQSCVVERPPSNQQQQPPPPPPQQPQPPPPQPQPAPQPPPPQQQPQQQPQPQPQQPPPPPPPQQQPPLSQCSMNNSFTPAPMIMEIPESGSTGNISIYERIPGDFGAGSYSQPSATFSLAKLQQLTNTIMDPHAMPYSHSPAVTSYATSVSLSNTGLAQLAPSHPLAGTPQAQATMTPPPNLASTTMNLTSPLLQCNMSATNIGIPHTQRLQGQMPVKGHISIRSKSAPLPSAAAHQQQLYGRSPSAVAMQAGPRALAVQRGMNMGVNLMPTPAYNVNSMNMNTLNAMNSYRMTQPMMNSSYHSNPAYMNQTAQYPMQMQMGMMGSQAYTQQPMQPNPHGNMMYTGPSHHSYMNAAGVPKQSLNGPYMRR
Test: KAT assay (SAMDI mass spectrometry), KAT6A;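 note: Baculovirus-expressed KAT6A acetylating histone H3 (1-21) peptide (2 µM), 30-60 min at room temperature, % product conversion fitted to Morrison equation for tight-binding competitive inhibitors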
Assay type: biochemical
Conditions: read-out: KAT6a Ki at 1 μM AcCoA; 1 μM AcCoA
assayReadout: pKi
Units for pKi: none; it is -log10 of a concentration expressed in mol/L.

1) COc1cc(C2CC2)cc(OC)c1S(=O)(=O)Nc1noc2cc(Cn3cccn3)cc(OC)c12; 9.00
2) COc1ccc(OC(F)(F)F)cc1S(=O)(=O)Nc1noc2cc(Cn3cccn3)cc(OC)c12; 8.90

Looking for the measured pKi of COCc1ccc(OC)c(S(=O)(=O)Nc2noc3cc(Cn4cccn4)cc(OC)c23)c1 , can you help?
8.74

---

Reported Ki values follow for various compounds
Biological target: KAT7 (Homo sapiens (Human))
Test: KAT assay (SAMDI mass spectrometry), KAT7
Assay type: biochemical
Conditions: read-out: KAT7 Ki at 1 μM AcCoA
Numbers only; they are read as nM.

Solved cases below.
1) COc1ccc2c(c1S(=O)(=O)Nc1noc3cc(Cn4cccn4)cc(OC)c13)CCCC2; 120
2) COc1ccc(S(=O)(=O)Nc2noc3cc(Cn4cccn4)cc(OC)c23)c(C)c1F; 1140
3) COc1cc(Cn2cccn2)cc2onc(NS(=O)(=O)c3cccc(C)c3F)c12; 140

Find the recorded Ki belonging to COc1cc(Cn2cccn2)cc2onc(NS(=O)(=O)c3cc(F)c(F)c(F)c3)c12 and report it.
630

What value of Ki has been recorded for this entry: COc1cccc(OC)c1S(=O)(=O)Nc1noc2cc(Cn3cccn3)c(Br)cc12
30

---

Molecular target: UniProtKB O95251
Assay: KAT assay (SAMDI mass spectrometry), KAT7
Assay type: biochemical
Conditions: read-out: KAT7 Ki at 1 μM AcCoA
pKi: −log10 of the molar value.
Label n if pKi falls below 6; label y in every other case.

Examples from the recorded data:
1. CCOc1ccccc1S(=O)(=O)Nc1noc2cc(Cn3cccn3)cc(OC)c12; y
2. CCc1ccc(OC)c(S(=O)(=O)Nc2noc3cc(Cn4cccn4)c(F)cc23)c1; y
3. COc1cccc(OC)c1S(=O)(=O)Nc1noc2cc(Cn3nccn3)cc(OC)c12; y
4. CCOc1ccc(S(=O)(=O)Nc2noc3cc(Cn4cccn4)cc(OC)c23)cc1; y
5. CCOc1cc2c(NS(=O)(=O)c3c(OC)cccc3OC)noc2cc1Cn1cccn1; y

In plain terms: is recorded pKi at least 6 for COc1cccc(OC)c1S(=O)(=O)Nc1noc2cc(Cn3ccnn3)cc(OC)c12 ?
n

Could you tell me if the measured pKi of CCc1cc(Cn2cccn2)cc2onc(NS(=O)(=O)c3c(OC)cccc3OC)c12 reaches 6 or more?
n

Would you say COc1cc(C)ccc1S(=O)(=O)Nc1noc2cc(Cn3cccn3)ccc12 shows pKi at minimum 6?
y
